Tested on: Xanthomonas campestris KB88
ASSAY_REMARKS: Paper disc assay, Xanthomonas campestris
Type: cell-based
ASSAY_SETUP: X; 1 mg/6 mm disc
PARAMETER: Inhibition zone (mm)
Unit mm implied. Number only.

Example results:
[[record]]
compound = "CC[C@H]1OC(=O)C[C@@H](O)[C@H](C)[C@@H](O[C@@H]2O[C@H](C)[C@@H](O)[C@H](N(C)C)[C@H]2O)[C@@H](CCn2cc(-c3ccsc3)nn2)C[C@@H](C)C(=O)/C=C/C(C)=C/[C@@H]1CO[C@@H]1O[C@H](C)[C@@H](O)[C@@H](OC)[C@H]1OC [YT14]"
target_entity = "Xanthomonas campestris KB88"
value_reported = 16

[[record]]
compound = "CC[C@H]1OC(=O)C[C@@H](O)[C@H](C)[C@@H](O[C@@H]2OC(C)[C@@H](O)C(N(C)C)C2O)[C@@H](CCn2cc(CCCCCl)nn2)C[C@@H](C)C(=O)/C=C/C(C)=C/[C@@H]1CO[C@@H]1OC(C)[C@@H](O)C(OC)C1OC (some centres unmarked) [YT19]"
target_entity = "Xanthomonas campestris KB88"
value_reported = 14.5

[[record]]
compound = "CC[C@H]1OC(=O)C[C@@H](O)[C@H](C)[C@@H](O[C@@H]2O[C@H](C)[C@@H](O)[C@H](N(C)C)[C@H]2O)[C@@H](CCN2C[C@H](C)C[C@H](C)C2)C[C@@H](C)C(=O)/C=C/C(C)=C/[C@@H]1CO[C@@H]1O[C@H](C)[C@@H](O)[C@@H](OC)[C@H]1OC [Tilmicosin, tilmicosin, reference compound]"
target_entity = "Xanthomonas campestris KB88"
value_reported = 20


Determine its reported Inhibition zone: CC[C@H]1OC(=O)C[C@@H](O)[C@H](C)[C@@H](O[C@@H]2OC(C)[C@@H](O)C(N(C)C)C2O)[C@@H](CCn2cc(-c3ccccc3)nn2)C[C@@H](C)C(=O)/C=C/C(C)=C/[C@@H]1CO[C@@H]1OC(C)[C@@H](O)C(OC)C1OC (some centres unmarked) [YT13] 17

Determine its reported Inhibition zone: CC[C@H]1OC(=O)C[C@@H](O)[C@H](C)[C@@H](O[C@@H]2OC(C)[C@@H](O)C(N(C)C)C2O)[C@@H](CCn2cc(-c3ccc(N(C)C)cc3)nn2)C[C@@H](C)C(=O)/C=C/C(C)=C/[C@@H]1CO[C@@H]1OC(C)[C@@H](O)C(OC)C1OC (some centres unmarked) [YT29] 15

Values were extracted from patent US9771389B2.
